Collected inhibition at 10 µM values appear next to each entry.
tested on: SK-OV-3; assay: NCI-60 one-dose assay; assay type: cell-based; conditions: Homo sapiens, SK-OV-3 (ovarian cancer), read-out: Cell Inhibition Percent
Just the number in %, nothing appended.

[Q] State, in one line, measured inhibition at 10 µM of O=C(NN=Cc1ccccc1)c1ccc2[nH]c(-c3ccc(Cl)cc3)nc2c1 [Compound 4a]
[A] 4.7

[Q] State, in one line, measured inhibition at 10 µM of CN(C)c1ccc(C=NNC(=O)c2ccc3[nH]c(-c4ccc(Cl)cc4)nc3c2)cc1 [Compound 4b]
[A] 0

[Q] State, in one line, measured inhibition at 10 µM of COc1ccc(C=NNC(=O)c2ccc3[nH]c(-c4ccc(Cl)cc4)nc3c2)cc1 [Compound 4g]
[A] 27.7

* * *

system: SK-MEL-2; experiment: NCI-60 one-dose assay; assay type: cell-based; conditions: Homo sapiens, SK-MEL-2 (Melanoma), read-out: Cell Inhibition Percent
Response key: 1 (yes) means inhibition at 10 µM >= 3%; 0 (no) means inhibition at 10 µM < 3%.

Examples with answers:
# compound, label-class
measured = [
    ("COc1ccc(C=NNC(=O)c2ccc3[nH]c(-c4ccc(Cl)cc4)nc3c2)cc1 [Compound 4g]", "1 (yes)"),
    ("O=C(NN=Cc1ccc(Cl)cc1)c1ccc2[nH]c(-c3ccc(Cl)cc3)nc2c1 [Compound 4e]", "1 (yes)"),
    ("COc1cc(/C=N/NC(=O)c2ccc3[nH]c(-c4ccc(Cl)cc4)nc3c2)cc(OC)c1OC [Compound 4h]", "1 (yes)"),
    ("O=C(NN=Cc1ccc(Cl)cc1Cl)c1ccc2[nH]c(-c3ccc(Cl)cc3)nc2c1 [Compound 4f]", "0 (no)"),
    ("O=C(NN=Cc1ccccc1)c1ccc2[nH]c(-c3ccc(Cl)cc3)nc2c1 [Compound 4a]", "0 (no)"),
]

[Q] Tell me whether inhibition at 10 µM is at least 3% here: O=C(N/N=C/c1ccc(O)cc1)c1ccc2[nH]c(-c3ccc(Cl)cc3)nc2c1 [Compound 4i]
[A] 0 (no)

[Q] Tell me whether inhibition at 10 µM is at least 3% here: CCn1c(-c2ccc3[nH]c(-c4ccc(Cl)cc4)nc3c2)n[nH]c1=S [Compound 6]
[A] 0 (no)

* * *

test system: DU-145; test: NCI-60 one-dose assay; type: cell-based; details: Homo sapiens, DU-145 (Prostate Cancer), read-out: Cell Inhibition Percent
Collected inhibition at 10 µM values appear next to each entry.
Just the number in %, nothing appended.

Take a look at these entries with their results.
# smiles-str, outcome-measure, measurement-units, meas-value
records = [
    ("O=C(NN=Cc1ccc(Cl)cc1)c1ccc2[nH]c(-c3ccc(Cl)cc3)nc2c1", "inhibition at 10 µM", "%", 69.5),
    ("COc1cc(/C=N/NC(=O)c2ccc3[nH]c(-c4ccc(Cl)cc4)nc3c2)cc(OC)c1OC", "inhibition at 10 µM", "%", 2.57),
    ("COc1ccc(C=NNC(=O)c2ccc3[nH]c(-c4ccc(Cl)cc4)nc3c2)cc1", "inhibition at 10 µM", "%", 20.7),
]

[Q] State, in one line, measured inhibition at 10 µM of `O=C(N/N=C/c1ccc(O)cc1)c1ccc2[nH]c(-c3ccc(Cl)cc3)nc2c1`
[A] 0

[Q] State, in one line, measured inhibition at 10 µM of `O=C(NN=Cc1ccc(Cl)cc1Cl)c1ccc2[nH]c(-c3ccc(Cl)cc3)nc2c1`
[A] 0

[Q] State, in one line, measured inhibition at 10 µM of `CCNC(=S)NNC(=O)c1ccc2[nH]c(-c3ccc(Cl)cc3)nc2c1`
[A] 0

[Q] State, in one line, measured inhibition at 10 µM of `CCn1c(-c2ccc3[nH]c(-c4ccc(Cl)cc4)nc3c2)n[nH]c1=S`
[A] 0

* * *

Collected inhibition at 10 µM values appear next to each entry.
tested on: SK-MEL-2; assay: NCI-60 one-dose assay; format: cell-based; settings: Homo sapiens, SK-MEL-2 (Melanoma), read-out: Cell Inhibition Percent
Just the number in %, nothing appended.

[Q] State, in one line, measured inhibition at 10 µM of `CN(C)c1ccc(C=NNC(=O)c2ccc3[nH]c(-c4ccc(Cl)cc4)nc3c2)cc1`
[A] 0

[Q] State, in one line, measured inhibition at 10 µM of `O=C(NN=Cc1ccc([N+](=O)[O-])cc1)c1ccc2[nH]c(-c3ccc(Cl)cc3)nc2c1`
[A] 33.3

[Q] State, in one line, measured inhibition at 10 µM of `CCNC(=S)NNC(=O)c1ccc2[nH]c(-c3ccc(Cl)cc3)nc2c1`
[A] 0

[Q] State, in one line, measured inhibition at 10 µM of `O=C(NN=Cc1ccc(F)cc1)c1ccc2[nH]c(-c3ccc(Cl)cc3)nc2c1`
[A] 16.7

* * *

tested on: DU-145; assay: NCI-60 one-dose assay; type: cell-based; details: Homo sapiens, DU-145 (Prostate Cancer), read-out: Cell Inhibition Percent
Collected inhibition at 10 µM values appear next to each entry.
Just the number in %, nothing appended.

Take a look at these entries with their results.
# smiles-str, measurement-units, inhibition at 10 µM
rows = [
    ("CN(C)c1ccc(C=NNC(=O)c2ccc3[nH]c(-c4ccc(Cl)cc4)nc3c2)cc1", "%", 0),
    ("O=C(NN=Cc1ccc([N+](=O)[O-])cc1)c1ccc2[nH]c(-c3ccc(Cl)cc3)nc2c1", "%", 58),
    ("O=C(NN=Cc1ccccc1)c1ccc2[nH]c(-c3ccc(Cl)cc3)nc2c1", "%", 3.83),
]

The record that follows has no inhibition at 10 µM shown yet.
[Q] State, in one line, measured inhibition at 10 µM of `O=C(NN=Cc1ccc(F)cc1)c1ccc2[nH]c(-c3ccc(Cl)cc3)nc2c1`
[A] 14.6

* * *

tested on: NCI-H460; assay: NCI-60 one-dose assay; type: cell-based; settings: Homo sapiens, NCI-H460 (Non-Small Cell Lung Cancer), read-out: Cell Inhibition Percent
Collected inhibition at 10 µM values appear next to each entry.
Just the number in %, nothing appended.

# smiles-str, target-system, inhibition at 10 µM / %
rows = [
    ("O=C(NN=Cc1ccc(Cl)cc1Cl)c1ccc2[nH]c(-c3ccc(Cl)cc3)nc2c1", "NCI-H460", 1.37),
    ("O=C(NN=Cc1ccc(F)cc1)c1ccc2[nH]c(-c3ccc(Cl)cc3)nc2c1", "NCI-H460", 63.8),
    ("COc1cc(/C=N/NC(=O)c2ccc3[nH]c(-c4ccc(Cl)cc4)nc3c2)cc(OC)c1OC", "NCI-H460", 17.2),
]

[Q] State inhibition at 10 µM on NCI-H460. Entry: `CCNC(=S)NNC(=O)c1ccc2[nH]c(-c3ccc(Cl)cc3)nc2c1`
[A] 1.06

* * *

tested on: SK-OV-3; test: NCI-60 one-dose assay; format: cell-based; settings: Homo sapiens, SK-OV-3 (ovarian cancer), read-out: Cell Inhibition Percent
Response key: T means inhibition at 10 µM >= 7%; F means inhibition at 10 µM < 7%.

Examples with answers:
# smiles-str, label-class
records = [
    ("CCNC(=S)NNC(=O)c1ccc2[nH]c(-c3ccc(Cl)cc3)nc2c1", "F"),
    ("O=C(NN=Cc1ccc(Cl)cc1Cl)c1ccc2[nH]c(-c3ccc(Cl)cc3)nc2c1", "T"),
    ("O=C(NN=Cc1ccc(Cl)cc1)c1ccc2[nH]c(-c3ccc(Cl)cc3)nc2c1", "T"),
    ("O=C(NN=Cc1ccc(F)cc1)c1ccc2[nH]c(-c3ccc(Cl)cc3)nc2c1", "F"),
]

[Q] Tell me whether inhibition at 10 µM is at least 7% here: `O=C(N/N=C/c1ccc(O)cc1)c1ccc2[nH]c(-c3ccc(Cl)cc3)nc2c1`
[A] F

[Q] Tell me whether inhibition at 10 µM is at least 7% here: `COc1cc(/C=N/NC(=O)c2ccc3[nH]c(-c4ccc(Cl)cc4)nc3c2)cc(OC)c1OC`
[A] T

[Q] Tell me whether inhibition at 10 µM is at least 7% here: `CCn1c(-c2ccc3[nH]c(-c4ccc(Cl)cc4)nc3c2)n[nH]c1=S`
[A] F

[Q] Tell me whether inhibition at 10 µM is at least 7% here: `O=C(NN=Cc1ccc([N+](=O)[O-])cc1)c1ccc2[nH]c(-c3ccc(Cl)cc3)nc2c1`
[A] T

* * *

System: OVCAR-5
Assay: NCI-60 one-dose assay
Type: cell-based
Details: Homo sapiens, OVCAR-5 (ovarian cancer), read-out: Cell Inhibition Percent
Excerpt: The final compounds were submitted to the National Cancer Institute, Bethesda, USA, for screening in vitro for anti-cancer. […] compounds, 4a–j, 5, and 6, were selected according to the Development Therapeutic Program (DTP) protocol. […]
Collected inhibition at 10 µM values appear next to each entry.
Just the number in %, nothing appended.

# smiles-str, measurement-units, inhibition at 10 µM
measured = [
    ("O=C(NN=Cc1ccc(Cl)cc1Cl)c1ccc2[nH]c(-c3ccc(Cl)cc3)nc2c1", "%", 0),
]

[Q] State, in one line, measured inhibition at 10 µM of `O=C(NN=Cc1ccc(F)cc1)c1ccc2[nH]c(-c3ccc(Cl)cc3)nc2c1`
[A] 10.8

[Q] State, in one line, measured inhibition at 10 µM of `CCNC(=S)NNC(=O)c1ccc2[nH]c(-c3ccc(Cl)cc3)nc2c1`
[A] 3.26

[Q] State, in one line, measured inhibition at 10 µM of `O=C(NN=Cc1ccccc1)c1ccc2[nH]c(-c3ccc(Cl)cc3)nc2c1`
[A] 0

[Q] State, in one line, measured inhibition at 10 µM of `O=C(NN=Cc1ccc([N+](=O)[O-])cc1)c1ccc2[nH]c(-c3ccc(Cl)cc3)nc2c1`
[A] 46.8

[Q] State, in one line, measured inhibition at 10 µM of `COc1ccc(C=NNC(=O)c2ccc3[nH]c(-c4ccc(Cl)cc4)nc3c2)cc1`
[A] 22.7

[Q] State, in one line, measured inhibition at 10 µM of `CN(C)c1ccc(C=NNC(=O)c2ccc3[nH]c(-c4ccc(Cl)cc4)nc3c2)cc1`
[A] 0
